# System: NOMO1
# ASSAY TEXT: cell viability relative to DMSO control; higher = less cytotoxic
# EXPERIMENTAL PARAMETERS: RPMI 5 mM glucose + 10% FBS; 48 h; 0.569 µM
Give measured cell viability for each item. Keep answers brief.
The figure you give is taken to be in %; do not add the unit.

The recorded cell viability for COc1nccc(-c2c(-c3ccc(F)cc3)ncn2C2CCNCC2)n1 is 100

Entry CC(C)C(C)/C=C/C(C)C1CCC2C3=CC=C4CC(O)CCC4(C)C3CCC21C (stereo not given) — recorded cell viability = 89.9

Value of cell viability reported for the compound OC1=C(O)C2=C(\C=C/C(=O)O2)C=C1 is 97.3

What the record says about COC1=C(N2CCNC(C)C2)C(=CC3=C1N(\C=C(C(O)=O)/C3=O)C4CC4)F (stereo not given) : cell viability is 96.6

# compound COc1cc2c(cc1-c1c(C)noc1C)ncc1[nH]c(=O)n([C@H](C)c3ccccn3)c12 ; its cell viability = 108

====

Please respond with reported cell viability for every item in the list.
# Test system: SEM cells
# ASSAY TEXT: cell viability relative to DMSO control; higher = less cytotoxic
# EXPERIMENTAL PARAMETERS: HPLM + 10% dialyzed FBS; 48 h; 0.19 µM
Put your answer as a value accompanied by its unit after it.

Short answer for CC(C)c1cnn2c(NCc3ccccc3)cc(N[C@@H](CO)[C@H](O)CO)nc12 : cell viability was 136%

GET /value?item= C[C@H](O)[C@H]1[C@@H]2[C@H](C)C(=C(\N2C1=O)C(O)=O)/S[C@@H]3CN[C@H](CN[S+](N)([O-])=O)C3 &field=cell viability returns 113%

The compound listed as COc1cccc2cc(-c3nc(C4CCC(C(=O)O)CC4)n4ncnc(N)c34)[nH]c12 (stereo not drawn) shows cell viability equal to 101%

GET /value?item= O=C(NCC[S+](=O)([O-])c1ccc(C(F)(F)F)cn1)c1ccc(Cl)cc1 &field=cell viability returns 114%

The compound identified as OC1=C(O)C2=C(\C=C/C(=O)O2)C=C1 registered its cell viability at 102%

Consider NCC1(CC(=O)O)CCCCC1 . Its measured cell viability is 130%

Value of cell viability reported for the compound CCCCCCCCCCCCCCCCCCCCCCO is 110%

Consider O=C(OC)[C@]12CC[C@@]3(C)[C@]4(C)CC[C@H]5[C@@](C)(C)C(=O)C(=C[C@]5(C)C4=CC(=O)[C@@H]3[C@@H]2C[C@](C)(C)CC1)C#N . Its measured cell viability is 99.7%

For reference, reported cell viability for CC(C)C(C)/C=C/C(C)C1CCC2C3=CC=C4CC(O)CCC4(C)C3CCC21C (stereo not drawn) stands at 77.4%

For COc1c(C)cnc(Cn2cnc3c(Cl)nc(N)nc32)c1C the compound record lists cell viability as 76.9%

The compound identified as CC1=C(/C=C/C(C)=C/C=C/C(C)=C/C=C/C=C(C)/C=C/C=C(C)/C=C/C2=C(C)CCCC2(C)C)C(C)(C)CCC1 registered its cell viability at 108%

cell viability in this record for C=CC(=O)Nc1cccc(Oc2nc(Nc3ccc(N4CCN(C)CC4)cc3)ncc2Cl)c1 : 111%

Summary for this compound, CC(=O)Nc1ccc(OC[C@](C)(O)C(=O)Nc2ccc([N+](=O)[O-])c(C(F)(F)F)c2)cc1 : cell viability is 72.8%

Note to self: cell viability recorded for CC(N[C@H]1C[C@@H]1c1ccccc1)c1ccc2c(c1)OCCO2 (stereo partly drawn) was 122%

Kindly note the recorded cell viability for CC(=O)N(C)c1cccc(-c2ccnc3c(C(=O)c4cccs4)cnn23)c1 , which is 99.4%

The measured cell viability associated with O=C([O-])C(O)Cc1ccc(O)c(O)c1 (stereo not drawn) reads 81.2%

Value of measured cell viability for the entry CC[C@H](CC[C@@H](C)[C@H]1CC[C@H]2[C@@H]3C\C=C/4C[C@@H](O)CC[C@]4(C)[C@H]3CC[C@]12C)C(C)C : 128%

The compound listed as CN(C)CCOc1cc(-c2cn[nH]c2)ccc1NC(=O)C1COc2ccccc2O1 (stereo not drawn) shows cell viability equal to 106%

The compound listed as COC1=CC=CC2=C1C(=NC(=N2)C3=CC=CS3)NN4C(=O)\C=C(C)/C4=O has a reported cell viability of 69.1%

cell viability for COC1=C(N2CCNC(C)C2)C(=CC3=C1N(\C=C(C(O)=O)/C3=O)C4CC4)F (stereo not drawn) is 66.3%

Per the records, this compound ( CC(C)(C)c1cc(NC(=O)Nc2ccc(-c3cn4c(n3)sc3cc(OCCN5CCOCC5)ccc34)cc2)no1 ) has cell viability equal to 38.2%

cell viability recorded for this compound, CNC(=O)c1ccc(-c2cnc3ncc(Cc4ccc5ncccc5c4)n3n2)cc1F , is 117%

GET /value?item= COc1cnc(N[S+](=O)([O-])c2ccc(N)cc2)nc1 &field=cell viability returns 94.6%

Please fill in: cell viability reported for Cn1c(=O)c2c(ncn2C)n(C)c1=O.O=C(O)CC(O)(CC(=O)O)C(=O)O = 128%

Record CC(C)n1nc(-c2cc3cc(O)ccc3[nH]2)c2c(N)ncnc21 . Reported cell viability: 84.4%

The recorded cell viability for COc1cc2nc(N(C)CCCNC(=O)C3CCCO3)nc(N)c2cc1OC (stereo not drawn) is 84.9%

Just so you know, measured cell viability for [NH2][Pt]1([NH2])[O]CC(=O)[O]1 came out at 102%

cell viability reading for CN\1C(=O)/C(=C(\N=C1N2CCCC[S+]2([O-])=O)C(=O)NCC3=CC=C(F)C=C3)O : 96.6%

====

Assign cell viability to each entry below.
# System: SEM cells
# ASSAY TEXT: cell viability relative to DMSO control; higher = less cytotoxic
# EXPERIMENTAL PARAMETERS: RPMI 5 mM glucose + 10% FBS; 48 h; 0.00234 µM
Report the value in % with no unit label.

GET /value?item= Oc1ccc2c3c1O[C@H]1c4[nH]c5c(c4C[C@@]4(O)[C@@H](C2)N(CC2CC2)CC[C@]314)C[C@@]1(O)[C@H]2Cc3ccc(O)c4c3[C@@]1(CCN2CC1CC1)[C@H]5O4 &field=cell viability returns 80.2

cell viability measured on CC(N[C@H]1C[C@@H]1c1ccccc1)c1ccc2c(c1)OCCO2 (stereo partly specified) = 95.1

CC(C)C(C)/C=C/C(C)C1CCC2C3=CC=C4CC(O)CCC4(C)C3CCC21C (stereo unspecified) yielded cell viability of 107

Recorded cell viability (molecule COC1=CC=CC2=C1C(=NC(=N2)C3=CC=CS3)NN4C(=O)\C=C(C)/C4=O ): 99

Quick note, cell viability for CCC1(C)CC(=O)NC1=O (stereo unspecified) landed at 101

Record CC(C)OC(=O)OCOP(=O)(CO[C@H](C)Cn1cnc2c(N)ncnc21)OCOC(=O)OC(C)C.O=C(O)C=CC(=O)O . Reported cell viability: 113

The measured cell viability associated with CC\1=C/C=C\C=[N]1[Pt](N)(Cl)Cl reads 119

For record CCN(CC)CC#CCOC(=O)C(O)(c1ccccc1)C1CCCCC1 (stereo unspecified) the listed cell viability is 117

According to the records, this molecule CN(CC#C)C/C1=C/C2=CC=CC=C2OC3=CC=CC=C13 displays cell viability of 109

Given item CC[C@H](CC[C@@H](C)[C@H]1CC[C@H]2[C@@H]3C\C=C/4C[C@@H](O)CC[C@]4(C)[C@H]3CC[C@]12C)C(C)C , the value recorded as its cell viability is 114

Record summary for C[C@@H](NC1=CC=CC=C1C(O)=O)C/2=C/C(=C\N3C(=O)/C=C(\N=C23)N4CCOCC4)C : reported cell viability = 92.3

Documented cell viability of CC(=O)O[C@H]1C(=O)[C@]2(C)[C@@H](O)C[C@H]3OC[C@@]3(OC(C)=O)C2[C@H](OC(=O)C4=CC=CC=C4)[C@]5(O)C[C@H](OC(=O)[C@H](O)[C@@H](NC(=O)C6=CC=CC=C6)C7=CC=CC=C7)\C(=C1/C5(C)C)C (stereo partly specified) : 30.5

Query Cc1c(CN2CCN(C(=O)[C@H](C)O)CC2)sc2c(N3CCOCC3)nc(-c3cnc(N)nc3)nc12 yields cell viability of 70

GET /value?item= COc1ccc(-c2cc3nccn3c(Nc3ncccc3C(N)=O)n2)cc1OC &field=cell viability returns 105

cell viability reading for C[C@]12C[C@H](O)[C@H]3[C@@H](CC\C4=C\C(=O)\C=C/[C@]34C)[C@@H]1CC[C@]2(O)C(=O)CO : 115

So for OC1=C(O)C2=C(\C=C/C(=O)O2)C=C1 , the logged cell viability turned out to be 106
